From: patent US20220204502A1

Experiment: Hygroscopicity (Dynamic Vapor Sorption, DVS) measurement
Assay type: physicochemical
Conditions: relative humidity 95.0 %, 25° C.
Procedure: The hygroscopicity was tested by using the crystal form I of above Example 8. i) Model name: DVS Intrinsic (Surface Measurement Systems LTD. UK) ii) Humidity: Initial 0% maximum 95% iii) Experiment time: 7 hours After placing a certain amount (10 mg) of the crystal form I compound prepared in Example 8 on a sample pan in a sample chamber, nitrogen was flowed through a tube connected into the sample chamber for the first one hour so as to remove moisture in the chamber and moisture of the sample. […]
reported.property: water (moisture) content by DVS (%)
Write down the numeric answer in % and omit the unit.

water (moisture) content by DVS in this record for C[C@H](Nc1ncnc2[nH]ccc(=O)c12)c1c(Cl)c2cccc(Cl)c2c(=O)n1-c1ccccc1 [Crystal form I] : 0.54
